# Test system: Staphylococcus aureus
# assay_summary: antibiogram by diffusion on Mueller-Hinton agar with antibiotic wafers
# Format: cell-based
# test_settings: Table C2; S. aureus phenotype Wild; sixteen wafers, square dish
# Method: The inoculum was prepared by making a suspension of bacteria directly from colonies put into solution in tubes of sterile water so that the solution presented accurate opacity as determined with a spectrophotometer equivalent to the opacity of a 0.5 standard in the McFarland range. This bacterial suspension concentration is standardized since a more concentrated inoculum would lead to smaller diameters for the inhibition zone, and vice versa. […]
assay_readout: resistant (I/R) or sensitive (S)

INSERT INTO results (compound, reported) VALUES
  ('CC(=O)NC[C@H]1CN(c2ccc(N3CCOCC3)c(F)c2)C(=O)O1 [LNZ, linezolid]', 'S'),
  ('O=C(O)c1cn(C2CC2)c2cc(N3CCNCC3)c(F)cc2c1=O [CIP, ciprofloxacin]', 'S'),
  ('Cc1onc(-c2ccccc2)c1C(=O)N[C@@H]1C(=O)N2[C@@H]1SC(C)(C)[C@@H]2C(=O)O [OXA, oxacillin]', 'S'),
  ('CCC[C@@H]1C[C@@H](C(=O)N[C@@H]([C@H]2O[C@H](SC)[C@H](O)[C@@H](O)[C@H]2O)[C@H](C)Cl)N(C)C1 [CLI, clindamycin]', 'S');

====

# System: Proteus mirabilis
# assay_summary: antibiogram by diffusion on Mueller-Hinton agar with antibiotic wafers
# Format: cell-based
# test_settings: Table C1; P. mirabilis phenotype Ll penicillinase; six wafers, disk loads of Table B
assay_readout: resistance (I, R) or sensitivity (S)

INSERT INTO results (molecule, assay_readout, reported) VALUES
  ('C[C@@H](O)[C@H]1C(=O)N2C(C(=O)O)=C(SCCN=CN)C[C@H]12 [IMP, imipenem]', 'resistance (I, R) or sensitivity (S)', 'S'),
  ('CO/N=C(\C(=O)N[C@@H]1C(=O)N2C(C(=O)O)=C(CSc3nc(=O)c(=O)[nH]n3C)CS[C@H]12)c1csc(N)n1 [CRO, ceftriaxone]', 'resistance (I, R) or sensitivity (S)', 'S'),
  ('CO/N=C(\C(=O)N[C@@H]1C(=O)N2C(C(=O)[O-])=C(C[N+]3(C)CCCC3)CS[C@H]12)c1csc(N)n1 [FEP, cefepime]', 'resistance (I, R) or sensitivity (S)', 'S'),
  ('CC1(C)S[C@@H]2[C@H](NC(=O)[C@H](N)c3ccc(O)cc3)C(=O)N2[C@H]1C(=O)O [AMX, amoxicillin]', 'resistance (I, R) or sensitivity (S)', 'R');
